target: Dual specificity protein kinase CLK4 (Homo sapiens) (UniProt Q9HAZ1); assay: qHTS Assay for Inhibitors of CDC-like Kinase 4 (Kinase-Glo Assay) (AID 1770); settings: recombinant Clk4, Kinase-Glo ATP depletion luminescence; series mostly up to 66.7 µM; further: nearly all actives have a fitted effect of over 65% in size
Sequence (Q9HAZ1 whole entry, looked up): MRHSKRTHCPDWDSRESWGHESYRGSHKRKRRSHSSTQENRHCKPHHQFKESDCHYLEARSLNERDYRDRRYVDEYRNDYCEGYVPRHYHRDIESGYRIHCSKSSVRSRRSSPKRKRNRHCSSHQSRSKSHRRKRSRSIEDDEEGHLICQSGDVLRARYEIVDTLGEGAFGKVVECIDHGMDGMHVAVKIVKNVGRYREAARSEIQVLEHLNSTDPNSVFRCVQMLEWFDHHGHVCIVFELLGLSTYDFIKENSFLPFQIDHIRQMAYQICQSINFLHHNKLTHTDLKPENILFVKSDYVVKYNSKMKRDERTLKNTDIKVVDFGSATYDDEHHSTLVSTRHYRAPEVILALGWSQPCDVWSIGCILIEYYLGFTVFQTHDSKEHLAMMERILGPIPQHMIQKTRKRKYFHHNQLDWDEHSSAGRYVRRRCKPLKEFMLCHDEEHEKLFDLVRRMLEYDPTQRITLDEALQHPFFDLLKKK
Results filed as inconclusive are left out. Activity calls are given as the source filed them. The call rests on the fitted dose curve; in most records, active means well fitted inhibition curve with a large enough effect; inconclusive means small, poorly fitted or top-dose-only effect; inactive means flat fitted curve, though single readings scatter.
Log the outcome using a class from active, inactive

Use these answered entries as a reference point.
CN(C)c1ncnc2ccc(-c3cccc(C#N)c3)cc12    active
O=c1c(-c2cc(F)cc(F)c2)nc2cnc(N3CCOCC3)nc2n1CCc1ccccc1    inactive
COc1ccccc1-c1nccc(Nc2ccc(F)cc2)n1    inactive

Q. For this compound, state the assay outcome: `Fc1ccc(Nc2ncnc3ccc(-c4ccoc4)cc23)cc1`
A. active

Q. For this compound, state the assay outcome: `CCNc1ncc2nc(-c3ccc(OC)cc3)c(=O)n(CCc3ccccc3)c2n1`
A. inactive

Q. For this compound, state the assay outcome: `COc1ccccc1-c1ccc2ncnc(NCc3ccccc3)c2c1`
A. active

Q. For this compound, state the assay outcome: `COc1cccc(-c2cncnc2NCc2cccc(C)c2)c1`
A. active

Q. For this compound, state the assay outcome: `CN1CCN(c2ncc3nc(-c4cc(F)cc(F)c4)c(=O)n(CCC#N)c3n2)CC1`
A. inactive

Q. For this compound, state the assay outcome: `c1nc(NC2CC2)c2cc(-c3ccoc3)ccc2n1`
A. active

Q. For this compound, state the assay outcome: `Cc1cnc(CNc2ncncc2-c2ccccc2C)cn1`
A. inactive

Q. For this compound, state the assay outcome: `COc1ncc2nc(-c3ccc(Cl)cc3)c(=O)n(C)c2n1`
A. inactive

Q. For this compound, state the assay outcome: `Cc1nc2cnc(Oc3ccccc3)nc2n(Cc2cccs2)c1=O`
A. inactive

Q. For this compound, state the assay outcome: `CC(=O)NCCNc1ncnc2ccc(-c3ccccc3C#N)cc12`
A. active

Q. For this compound, state the assay outcome: `COc1ncc2nc(C)c(=O)n(CCc3ccccc3)c2n1`
A. inactive

Q. For this compound, state the assay outcome: `COc1ccc(CNc2ccnc(-c3ccccc3CN(C)C)n2)c(OC)c1`
A. inactive

Q. For this compound, state the assay outcome: `O=c1c(-c2cccs2)nc2cnc(N3CCOCC3)nc2n1CCc1ccccc1`
A. inactive

Q. For this compound, state the assay outcome: `COc1ccc2[nH]cc(CCNc3cc(-c4ccccc4Cl)ncn3)c2c1`
A. active

Q. For this compound, state the assay outcome: `CN(Cc1ccco1)c1ccnc(-c2ccccc2C(F)(F)F)n1`
A. inactive

Q. For this compound, state the assay outcome: `COc1cccc(-c2cc(NCc3cnc(C)cn3)ncn2)c1`
A. active

* * *

Measured activity change, negative = inhibition, listed per entry for reference.
experiment: AP1 Signaling Pathway (AID 357); conditions: ME-180 AP-1-bla reporter, EGF-induced, beta-lactamase ratio, 5 h; at 7.69 µM (top of the series) unless noted;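 further: ME-180 reporter cells stimulated with EGF at its EC50 level; on the % scale 0 is the no-effect control and ±100 the full control effect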
Results filed as inconclusive are left out.
Please reply with the bare figure in % and do not write the unit itself.

Record excerpt, results attached:
CC(=O)NCCNc1ncnc2ccc(-c3ccccc3C)cc12    28
Cc1nc2cnc(N3CCNCC3)nc2n(C2CC2)c1=O    5.94
Cn1cccc1C(=O)N1CCC2(CC1)CCN(c1ccccn1)CC2    -0.389
COc1ccccc1CNc1ncncc1-c1ccccc1CN(C)C    -14.2
COc1ccc(C(=O)N2CCC3(CCCN(c4ncccn4)C3)CC2)cc1    0.224

Q. Dear colleague, I am looking for the recorded activity change, negative = inhibition of the following compound: `Cn1c(=O)c(-c2ccc(F)cc2)nc2cnc(OCc3ccccc3)nc21`
A. 14.6

Q. Dear colleague, I am looking for the recorded activity change, negative = inhibition of the following compound: `O=c1c(-c2cccs2)nc2cncnc2n1-c1ccccc1`
A. -11.2

Q. Dear colleague, I am looking for the recorded activity change, negative = inhibition of the following compound: `COc1cccc(-c2nc(NC3CCNCC3)c3ccccc3n2)c1`
A. 14.7

Q. Dear colleague, I am looking for the recorded activity change, negative = inhibition of the following compound: `COCCn1c(=O)c(-c2cn(C)c3ccccc23)nc2cnc(Oc3ccccc3)nc21`
A. 26.2

Q. Dear colleague, I am looking for the recorded activity change, negative = inhibition of the following compound: `CN(Cc1ccco1)c1nc(-c2cccc(C#N)c2)nc2ccccc12`
A. 6.74

Q. Dear colleague, I am looking for the recorded activity change, negative = inhibition of the following compound: `COCCn1c(=O)c(-c2cccc(F)c2)nc2cncnc21`
A. -16

* * *

assay: NFAT Signaling Pathway (AID 444); settings: Jurkat NFAT-bla M1, carbachol, beta-lactamase ratio, 5 h; at 7.69 µM (top of the series) unless noted;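 further: carbachol stimulus at about its EC50 of 1 µM final; on the % scale 0 is the no-effect control and ±100 the full control effect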
Inconclusive results are not listed.
reported_metric: activity change, negative = inhibition (%)
Please reply with the bare figure in % and do not write the unit itself.

Record excerpt, results attached:
CN(C)c1ncnc2ccc(-c3ccccc3C(F)(F)F)cc12    20.6
O=c1c(-c2cccs2)nc2cnc(N3CCNCC3)nc2n1C1CC1    0.706
COc1cccc(-c2cncnc2NCc2cccc(C)c2)c1    -0.339

Q. Dear colleague, I am looking for the recorded activity change, negative = inhibition of the following compound: `COc1ccc(Oc2ncc3nc(-c4ccc(F)cc4)c(=O)n(Cc4cccs4)c3n2)cc1`
A. -29.2

Q. Dear colleague, I am looking for the recorded activity change, negative = inhibition of the following compound: `Cn1cc(-c2nc3cnc(OCc4ccccc4)nc3n(CCC#N)c2=O)c2ccccc21`
A. 9.29

Q. Dear colleague, I am looking for the recorded activity change, negative = inhibition of the following compound: `COc1cccc(Cn2c(=O)c(-c3cc(F)cc(F)c3)nc3cnc(N4CCOCC4)nc32)c1`
A. 5.53

Q. Dear colleague, I am looking for the recorded activity change, negative = inhibition of the following compound: `c1ccc(Nc2ncncc2-c2ccc3c(c2)OCO3)cc1`
A. 9.45

* * *

target: Dual specificity protein kinase CLK4 (Homo sapiens); experiment: qHTS Assay for Inhibitors of CDC-like Kinase 4 (ADP-Glo Assay) (AID 1771); settings: recombinant CLK4, ADP-Glo luminescence; series mostly up to 80 µM; further: nearly all actives have a fitted effect of over 70% in size
Inconclusive results are not listed. Active and inactive are the calls of the source. Calls follow the shape of the dose curve; as a rule, active = well fitted inhibition curve with a large enough effect; inconclusive = small, poorly fitted or top-dose-only effect; inactive = flat fitted curve, though single readings scatter.
Log the outcome using a class from active, inactive

Use these answered entries as a reference point.
CS(=O)(=O)Nc1cccc(-c2nc(NC3CC3)c3ccccc3n2)c1    active
O=c1c(-c2ccc(F)cc2)nc2cncnc2n1-c1ccccc1    inactive
COc1ccc(-c2nc3cnc(OC)nc3n(CCC#N)c2=O)cc1    inactive
COCCn1c(=O)c(-c2ccccc2)nc2cnc(N3CCOCC3)nc21    inactive
CN(C)c1ccc(-c2cncnc2-n2ccnc2)cc1    active

Q. For this compound, state the assay outcome: `COc1ncc2nc(-c3cccs3)c(=O)n(Cc3cccs3)c2n1`
A. inactive

Q. For this compound, state the assay outcome: `CN(C)Cc1ccccc1-c1nccc(N(C)Cc2ccco2)n1`
A. inactive

Q. For this compound, state the assay outcome: `CN(C)C(=O)c1ccc(-c2cc(N(C)Cc3ccco3)ncn2)cc1`
A. active

Q. For this compound, state the assay outcome: `N#Cc1cccc(-c2cncnc2NCc2ccccc2)c1`
A. inactive

* * *

test: qHTS Assay for Identification of Small Molecule Agonists for Hypoxia Response Element Signaling Pathway (AID 914); conditions: ME-180 (cervical carcinoma) HRE-bla reporter, beta-lactamase ratio, CoCl2, 17 h; active compounds read high; further: % of control where 0% means no effect
Results filed as inconclusive are left out.
reported_metric: activation (%)
Please reply with the bare figure in % and do not write the unit itself.

Record excerpt, results attached:
Cc1cccc(CNc2ncncc2-c2ccccc2Cl)c1    -10.3
COc1ccc(Oc2ncc3nc(C)c(=O)n(C4CC4)c3n2)cc1    -6.35
COCCn1c(=O)c(-c2ccc(F)cc2)nc2cncnc21    3.14
O=C(Nc1ccccc1)N1CC2(CCN(S(=O)(=O)c3ccccc3)CC2)C1    -12.4
CN(C)Cc1ccccc1-c1cc(N(C)C)ncn1    5.79

Q. Dear colleague, I am looking for the recorded activation of the following compound: `c1ccc2c(Nc3ccncc3)nc(-c3ccc4c(c3)OCO4)nc2c1`
A. -1.29

* * *

target: Ubiquitin carboxyl-terminal hydrolase 1 (Homo sapiens); assay: Inhibitors of USP1/UAF1: Pilot qHTS (AID 504865); conditions: purified USP1/UAF1, Ub-rhodamine cleavage fluorescence; series mostly up to 54.9 µM;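 further: rhodamine fluorescence freed from ubiquitin-rhodamine substrate followed over time; top concentration of the series differs between compounds; on the % scale 0 is the no-effect control and ±100 the full control effect; nearly all actives have a fitted effect of over 35% in size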
Records with an inconclusive call do not appear. Activity calls are given as the source filed them. Calls follow the shape of the dose curve; as a rule, active = well fitted inhibition curve with a large enough effect; inconclusive = small, poorly fitted or top-dose-only effect; inactive = flat fitted curve, though single readings scatter.
Log the outcome using a class from TRUE = active, FALSE = inactive

Q. For this molecule, state the assay outcome: `c1ccc(Nc2ncncc2-c2ccc3c(c2)OCO3)cc1`
A. FALSE

Q. For this molecule, state the assay outcome: `COc1ccccc1CNc1cc(-c2ccoc2)ncn1`
A. FALSE

Q. For this molecule, state the assay outcome: `COCCn1c(=O)c(-c2cc(F)cc(F)c2)nc2cnc(N(C)C)nc21`
A. FALSE

Q. For this molecule, state the assay outcome: C[C@]12CCC3c4ccc(O)cc4CCC3[C@@H]1CCC2=O (some centres undefined)
A. FALSE

Q. For this molecule, state the assay outcome: `c1ccc2c(N3CCOCC3)nc(-c3ccoc3)nc2c1`
A. FALSE

Hey, just so you know, these numbers are from PubChem BioAssay (NCATS).
